Molecular target: Tissue alpha-L-fucosidase (Bos taurus)
Sequence (whole entry): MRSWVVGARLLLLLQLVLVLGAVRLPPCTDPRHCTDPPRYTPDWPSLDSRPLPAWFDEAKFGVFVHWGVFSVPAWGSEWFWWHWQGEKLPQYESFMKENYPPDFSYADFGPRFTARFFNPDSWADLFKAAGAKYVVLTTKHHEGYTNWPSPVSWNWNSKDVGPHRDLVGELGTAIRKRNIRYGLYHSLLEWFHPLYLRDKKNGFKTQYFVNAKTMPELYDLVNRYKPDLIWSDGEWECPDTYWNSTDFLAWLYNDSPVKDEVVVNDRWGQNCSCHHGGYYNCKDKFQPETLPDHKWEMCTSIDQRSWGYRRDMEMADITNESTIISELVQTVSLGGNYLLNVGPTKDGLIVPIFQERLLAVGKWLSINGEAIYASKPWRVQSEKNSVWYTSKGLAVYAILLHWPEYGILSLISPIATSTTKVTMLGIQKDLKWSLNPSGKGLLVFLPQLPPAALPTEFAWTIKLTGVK
Test: Inhibition of bovine kidney alpha-L-fucosidase assessed as reduction of p-nitrophenol release using p-nitrophenyl glycoside as substrate at 1000 uM by spectrophotometric analysis relative to control
measured-quantity: inhibition

>>> observed_measurement("CC(C)(C)c1ccc(CCCCCC[C@H](O)[C@@H]2N[C@@H](CO)[C@H](O)[C@H]2O)cc1")
"0%"
>>> observed_measurement("CC(C)(C)c1ccc(CCCCCCC[C@H]2N[C@H](CO)[C@@H](O)[C@@H]2O)cc1.Cl")
"0%"
>>> observed_measurement("Cc1ccc(CCCCCC[C@@H](O)[C@@H]2N[C@@H](CO)[C@H](O)[C@H]2O)cc1")
"0%"
>>> observed_measurement("Cc1ccc(CCCCCC[C@@H](O)[C@H]2N[C@H](CO)[C@@H](O)[C@@H]2O)cc1")
"0%"
>>> observed_measurement("OC[C@H]1N[C@H]([C@H](O)CCCCCCc2ccc(Cl)cc2)[C@@H](O)[C@@H]1O")
"0.6%"
>>> observed_measurement("Cl.OC[C@H]1N[C@H](CCCCCCCc2cccc(F)c2)[C@@H](O)[C@@H]1O")
"2.7%"
>>> observed_measurement("Cl.OC[C@H]1N[C@H](CCCCCCCc2ccc(F)cc2)[C@@H](O)[C@@H]1O")
"38.7%"
>>> observed_measurement("O=C1CCCC=C1CCCCCCC[C@H]1N[C@H](CO)[C@@H](O)[C@@H]1O")
"16.8%"
>>> observed_measurement("OC[C@@H]1N[C@@H]([C@@H](O)CCCCCCc2ccc(Cl)cc2)[C@H](O)[C@H]1O")
"6.3%"
>>> observed_measurement("CC(C)(C)c1ccc(CCCCCC[C@@H](O)[C@@H]2N[C@@H](CO)[C@H](O)[C@H]2O)cc1")
"0%"
>>> observed_measurement("OC[C@H]1N[C@H](CCCCCCCc2ccc(F)c(F)c2F)[C@@H](O)[C@@H]1O")
"0%"

====

molecular target: Alpha-mannosidase (Canavalia ensiformis) (UniProt C0HJB3); assay: Inhibition of jack bean alpha-mannosidase assessed as reduction of p-nitrophenol release using p-nitrophenyl glycoside as substrate at 1000 uM by spectrophotometric analysis relative to control
Sequence (C0HJB3 1-562 limits assumed): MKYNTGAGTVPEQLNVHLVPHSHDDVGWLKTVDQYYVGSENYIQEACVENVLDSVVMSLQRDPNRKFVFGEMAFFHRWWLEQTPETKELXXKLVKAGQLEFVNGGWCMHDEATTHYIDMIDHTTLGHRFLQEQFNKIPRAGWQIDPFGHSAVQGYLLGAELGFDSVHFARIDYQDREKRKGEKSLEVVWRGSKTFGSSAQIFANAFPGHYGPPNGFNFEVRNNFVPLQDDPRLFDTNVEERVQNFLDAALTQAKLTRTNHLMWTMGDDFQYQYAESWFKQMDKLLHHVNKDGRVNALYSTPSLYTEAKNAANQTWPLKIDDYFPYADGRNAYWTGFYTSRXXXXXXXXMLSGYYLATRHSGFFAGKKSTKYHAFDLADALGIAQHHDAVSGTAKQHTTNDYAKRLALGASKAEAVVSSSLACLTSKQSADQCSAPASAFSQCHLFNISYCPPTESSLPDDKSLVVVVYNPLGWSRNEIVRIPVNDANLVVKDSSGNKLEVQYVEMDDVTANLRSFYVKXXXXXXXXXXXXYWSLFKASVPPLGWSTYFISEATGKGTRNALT
Sequence (C0HJB3 563-981 limits assumed): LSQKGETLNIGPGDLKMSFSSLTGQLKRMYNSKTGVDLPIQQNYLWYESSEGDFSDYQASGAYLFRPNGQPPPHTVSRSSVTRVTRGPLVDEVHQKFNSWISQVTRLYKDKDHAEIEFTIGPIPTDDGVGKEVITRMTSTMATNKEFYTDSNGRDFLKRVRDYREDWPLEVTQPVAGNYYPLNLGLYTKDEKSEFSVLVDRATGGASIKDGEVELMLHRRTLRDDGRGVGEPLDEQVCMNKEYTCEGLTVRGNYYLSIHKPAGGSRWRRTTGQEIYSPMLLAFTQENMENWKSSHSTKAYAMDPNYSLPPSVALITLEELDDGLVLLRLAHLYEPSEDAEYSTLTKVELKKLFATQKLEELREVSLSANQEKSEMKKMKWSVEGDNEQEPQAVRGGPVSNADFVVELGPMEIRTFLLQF
Listed next: entries and their corresponding inhibition.
measured-quantity: inhibition (%)

>>> observed_measurement("OC[C@@H]1N[C@@H]([C@@H](O)CCCCCCc2ccc(Cl)cc2)[C@H](O)[C@H]1O")
0
>>> observed_measurement("Cc1ccc(CCCCCCC[C@H]2N[C@H](CO)[C@@H](O)[C@@H]2O)cc1.Cl")
3.5
>>> observed_measurement("CC(C)(C)c1ccc(CCCCCC[C@H](O)[C@H]2N[C@H](CO)[C@@H](O)[C@@H]2O)cc1")
0
>>> observed_measurement("OC[C@H]1N[C@H]([C@@H](O)CCCCCCc2ccccc2)[C@@H](O)[C@@H]1O")
0
